Tested on: LOC_OS01G01410-cb001
Test: thermal shift delta Tm vs DMSO control; higher = stronger stabilization (binding);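 further: purified Escherichia coli-expressed rice kinase domain construct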
Details: 12.5 µM; protein concentration 2 µM
Structures can show the parent of a compound that is named as a salt.
Categorize each record by its thermal shift delta Tm using low value (below 0.5 °C), medium value (0.5 °C to below 1 °C), high value (1 °C or more)

| molecule | category.label |
| --- | --- |
| CCN(CC)CCCCNc1ncc2cc(-c3cc(OC)cc(OC)c3)c(NC(=O)NC(C)(C)C)nc2n1 | low value |
| COc1ccc2c(c1)[C@]1(C[C@H]1c1ccc3c(/C=C/c4ccc(CN5C[C@@H](C)O[C@@H](C)C5)cc4)n[nH]c3c1)C(=O)N2 | high value |
| CC(C)n1nc(-c2cc3cc(O)ccc3[nH]2)c2c(N)ncnc21 | medium value |
| N#Cc1c(O)c2c(-c3ccc(-c4ccccc4O)cc3)csc2[nH]c1=O | medium value |
| Nc1ncnc2c1c(-c1cnc3[nH]ccc3c1)nn2C1CCCC1 | high value |
| Cc1ccc(C(=O)Nc2cccc(C(F)(F)F)c2)cc1Nc1nc(-c2cccnc2)nc2c1cnn2C | high value |
| CN1CCC(CNc2ccc3ncc(-c4cccc(OC(F)(F)F)c4)n3n2)CC1 [SGI-1776 free base] | low value |
| COc1ccc(F)c(F)c1C(=O)c1cnc(NC2CCN(S(C)(=O)=O)CC2)nc1N | low value |
| CC#CC(=O)N1CCC[C@H]1c1nc(-c2ccc(C(=O)Nc3ccccn3)cc2)c2c(N)nccn12 | medium value |
| COc1ccc(-c2cc3c(C)nc(N)nc3n([C@H]3CC[C@H](OCCO)CC3)c2=O)cn1 | medium value |
| CCn1c(N)c(C(=O)NC)c(=O)c2ccc(C#CC(C)(O)COC)nc21 (stereo not drawn) | low value |
| Cn1cc(C2=C(c3ccc(Cl)cc3Cl)C(=O)NC2=O)c2ccccc21 | high value |
| C[C@H]1CNCCCN1S(=O)(=O)c1cccc2cncc(F)c12 [Ripasudil (K-115) hydrochloride dihydrate] | low value |
| C=CC(=O)Nc1cccc(Oc2nc(Nc3ccc(N4CCN(C)CC4)cc3OC)ncc2Cl)c1 | low value |
| Nc1nccc(Oc2ccc3c(C(=O)Nc4cccc(C(F)(F)F)c4)cccc3c2)n1 | medium value |
| CC[C@@H]1C(=O)N(C)c2cnc(Nc3ccc(C(=O)NC4CCN(C)CC4)cc3OC)nc2N1C1CCCC1 | high value |
| O=C(Nc1cccnc1)c1cc(-c2ccnc(F)c2)ccc1OCc1ccccc1 | high value |

###

System: LOC_OS01G67340-cb003
Test: thermal shift delta Tm vs DMSO control; higher = stronger stabilization (binding)
Conditions: 12.5 µM; protein concentration 2 µM

| compound | thermal shift delta Tm |
| --- | --- |
| COCCOc1cnc2ccn([C@H](C)c3nnc4c(F)cc(-c5cnn(C)c5)cn34)c(=O)c2c1 | 0.31 °C |
| Cc1nc(Nc2n[nH]c3c2CN(C(=O)N[C@H](CN(C)C)c2ccccc2)C3(C)C)c2sccc2n1 | 0.06 °C |
| Cc1cc(Nc2cc(N3CCN(C)CC3)nc(Sc3ccc(NC(=O)C4CC4)cc3)n2)n[nH]1 [Tozasertib (VX-680, MK-0457)] | 1.87 °C |
| COc1ccc(-c2ccc3ncc4c(c3c2)n(-c2ccc(N3CCNCC3)c(C(F)(F)F)c2)c(=O)n4C)cn1 | 1.43 °C |
